Cited source for all entries: patent US20240018102A1

- assay-system: human LPA1 (Homo sapiens, UniProt Q92633)
- Construct: expressed in transfected cells; host or cells: CHO-K1
- Sequence (Q92633 whole entry): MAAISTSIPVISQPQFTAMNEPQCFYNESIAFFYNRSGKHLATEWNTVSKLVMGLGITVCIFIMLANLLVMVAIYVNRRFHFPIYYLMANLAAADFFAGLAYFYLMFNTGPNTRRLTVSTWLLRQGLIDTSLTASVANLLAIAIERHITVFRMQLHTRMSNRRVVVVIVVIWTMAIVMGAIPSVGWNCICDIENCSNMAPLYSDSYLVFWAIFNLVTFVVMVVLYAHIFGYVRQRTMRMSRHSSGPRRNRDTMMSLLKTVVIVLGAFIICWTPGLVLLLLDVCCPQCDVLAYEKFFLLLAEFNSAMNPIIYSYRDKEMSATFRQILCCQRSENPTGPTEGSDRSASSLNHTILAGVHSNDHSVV
- measurement-description: In vitro LPA1 calcium flux antagonist assay, Bioduro protocol
- Format: cell-based
- condition-info: CHO-K1 cells overexpressing human LPA1 and G15a; LPA challenge at EC80; calcium mobilization on FLIPR Tetra; read-out: IC50 (nM) in Assay B2
Lab note: cut-off is 100 nM. Strictly less in IC50 is MET. Exactly 100 nM or more is NOT MET.

# structure-string, category
records = [
    ("CCOc1cc([C@@H](O)[C@H](Cn2cc3cncc(C(=O)O)c3n2)OC2CCCC2)cc(OCC)n1", "NOT MET"),
    ("COc1cc([C@@H](O)[C@H](Cn2cc3c(C#N)ccc(C(=O)O)c3n2)OC2CCCC2)cc(OC)c1C", "MET"),
    ("COc1cc([C@@H](O)[C@H](Cn2cc3ccc(C#N)c(C(=O)O)c3n2)OC2CCCC2)cc(OC)c1C", "NOT MET"),
    ("CCc1cc(C(=O)O)c2nc(C[C@H](OC3CCCC3)[C@H](O)c3cc(OC)c(C)c(OC)c3)cn2c1", "NOT MET"),
    ("COc1cc([C@@H](O)[C@H](Cc2nc3c(C(=O)O)cccc3n2C)OC2CCCC2)cc(OC)c1C", "NOT MET"),
    ("COc1cc(C(=O)O)n2nc(C[C@H](OC3CCCC3)[C@H](O)c3cc(OC)c(C)c(OC)c3)cc2c1", "MET"),
]

----------
Measured IC50 by item
- assay-system: human LPA1 (Homo sapiens, UniProt Q92633)
- Construct: expressed in transfected cells; host or cells: CHO-K1
- measurement-description: In vitro LPA1 calcium flux antagonist assay, Bioduro protocol
- Type: cell-based
- condition-info: CHO-K1 cells overexpressing human LPA1 and G15a; LPA challenge at EC80; calcium mobilization on FLIPR Tetra; read-out: IC50 (nM) in Assay B2

# structure-string, IC50, nM
measured = [
    ("COc1cc([C@@H](O)[C@H](Cc2cc3cc(C(F)(F)F)cc(C(=O)O)n3n2)OC2CCCC2)cc(OC)c1C", 17.4),
    ("COc1cc([C@@H](O)[C@H](Cc2nc3c(C(=O)O)cc(C4CC4)cc3s2)OC2CCCC2)cc(OC)c1C", 2.51),
    ("COc1cc([C@H](O)[C@H](Cc2nc3c(C(=O)O)cccc3s2)OC2CCCC2)cc(OC)c1C", 717),
    ("CCc1cc(C(=O)O)c2nc(C[C@H](OC3CCCC3)[C@H](O)c3cc(OC)c(C)c(OC)c3)sc2c1", 5.75),
]

----------
- assay-system: human LPA1 (Homo sapiens, UniProt Q92633)
- Construct: expressed in transfected cells; host or cells: CHO-K1
- measurement-description: In vitro LPA1 functional antagonist assay (calcium mobilization, FLIPR)
- Assay type: cell-based
- condition-info: CHO-K1 cells overexpressing human LPA1; Oleoyl LPA challenge; calcium mobilization on FLIPR Tetra
pIC50: −log10 of the molar value.

# molecule, assay-system, pIC50
measured = [
    ("COc1cc([C@@H](O)[C@H](Cn2cc3cccc(C(=O)O)c3n2)OCC2CCC2)cc(OC)c1C [Compound 118a]", "human LPA1 (Homo sapiens, UniProt Q92633)", 7.58),
    ("COc1cc([C@@H](O)C(Cn2cc3cccc(C(=O)O)c3n2)OCCc2ccccc2)cc(OC)c1C (stereo in doubt) [Compound 105a]", "human LPA1 (Homo sapiens, UniProt Q92633)", 8.47),
    ("COc1cc([C@@H](O)[C@H](Cn2cc3cccc(C(=O)O)c3n2)OC2Cc3ccccc3C2)cc(OC)c1C [Compound 113a]", "human LPA1 (Homo sapiens, UniProt Q92633)", 8.43),
    ("COC(=O)c1cn(C[C@H](OCC2CCC2)[C@H](O)c2cc(OC)c(C)c(OC)c2)cc1CC(=O)O [Compound 117a]", "human LPA1 (Homo sapiens, UniProt Q92633)", 7.21),
]
